- targetUnderTest: Bcl-2-like protein 11/Bcl-2-related protein A1 (Homo sapiens, UniProt O43521+Q16548)
- Sequence (O43521 whole entry): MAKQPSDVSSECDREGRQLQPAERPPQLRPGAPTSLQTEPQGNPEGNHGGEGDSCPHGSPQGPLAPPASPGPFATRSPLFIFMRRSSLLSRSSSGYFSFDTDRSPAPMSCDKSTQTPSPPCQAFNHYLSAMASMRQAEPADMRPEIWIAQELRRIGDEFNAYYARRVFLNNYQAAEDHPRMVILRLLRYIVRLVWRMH
- Sequence (Q16548 whole entry): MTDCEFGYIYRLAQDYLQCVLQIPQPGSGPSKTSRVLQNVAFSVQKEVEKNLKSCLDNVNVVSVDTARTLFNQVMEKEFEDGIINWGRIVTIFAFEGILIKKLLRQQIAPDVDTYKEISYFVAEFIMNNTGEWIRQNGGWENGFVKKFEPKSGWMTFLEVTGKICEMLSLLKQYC
- measurementNotes: Inhibition of Bfl-1/Bim (unknown origin) assessed as inhibition constant by fluorescence polarization assay
pKi: −log10 of the molar value.
Attribute: pKi
measuredMetric: pKi

> print(dat)
                                   compound  reading
1  CSc1ccc(C(Nc2ccccn2)c2c(C)[nH]c3ccccc23)cc1 (configuration not stated)     5.54
2  COc1ccc(C(c2c(-c3ccccc3)n(O)c3ccccc23)N2CCN(C)CC2)cc1 (configuration not stated)     6.40

---

- targetUnderTest: Bcl-2-like protein 11/Bcl-2-related protein A1 (Homo sapiens, UniProt O43521+Q16548)
- measurementNotes: Inhibition of Bfl-1/Bim (unknown origin) by fluorescence polarization assay
- Format: protein-complex assay
Listed here: items and their measured IC50.
measuredMetric: IC50 (µM)

> print(dat)
                                   compound                           targetundertest  measuredmetric  reading
1  CSc1ccc(C(Nc2ccccn2)c2c(C)[nH]c3ccccc23)cc1 (configuration not stated)  Bcl-2-like protein 11/Bcl-2-related protein A1 (Homo sapiens, UniProt O43521+Q16548)            IC50      6.3
2  COc1ccc(C(c2c(-c3ccccc3)n(O)c3ccccc23)N2CCN(C)CC2)cc1 (configuration not stated)  Bcl-2-like protein 11/Bcl-2-related protein A1 (Homo sapiens, UniProt O43521+Q16548)            IC50      0.8
